- measurement_protocol: Pharmacokinetics and absolute bioavailability in plasma after single oral or intravenous administration (Example 1)
- run_conditions: both, domestic short hair (HsdCpb: CADS), plasma, po, 1 mg/kg, t ½, oral, single dose 1 mg/kg, mean
measurement_kind: half-life

smiles_string | result
CCCc1nc2c(C)cc(-c3nc4ccccc4n3C)cc2n1Cc1ccc(-c2ccccc2C(=O)O)cc1 | 2.17 h

Where do these numbers come from? They come from patent US10357479B2.
